Record: compiled IC50 on USP30 (Homo sapiens (Human), UniProt Q70CQ3) from multiple reports.

Record excerpt, results attached:
C[C@@H]1[C@H](NC(=O)c2ccc(-c3ccc(F)cc3)cn2)CCN1C#N (racemic)
100 to 1000 nM
CC(=O)Nc1cccc(-c2cc(C3CCN(C#N)C3)[nH]n2)c1 (centres unmarked)
1000 to 10000 nM
Cn1cc(-c2ccc3c(C(=O)N[C@@H]4CCN(C#N)C4)cnn3c2)cn1
100 to 1000 nM
N#CN1CC[C@@H](N2CCN(c3ccc4c(c3)OCC(=O)N4)S2(=O)=O)C1
100 to 1000 nM

Let us move to another entry and its IC50.
Entry under review: N#CN1C[C@H]2CCN(C(=O)Nc3ccc(C(F)(F)F)cc3F)[C@H]2C1 . Reported IC50? < 100 nM
